Heads up, these compounds all have IC50 values measured for Human β2 adrenoceptor (Homo sapiens, UniProt P07550).

Some entries whose results are on file:
[[record]]
compound = "O=C(N[C@H]1CCN(C(=O)COc2cccc([C@](O)(C(=O)OCC3CCN(Cc4ccccc4)CC3)c3ccccc3)c2)C1)c1ccc(CNC[C@H](O)c2ccc(O)c3[nH]c(=O)ccc23)cc1"
observable = "IC50"
reportedresult = "< 0.3 nM"

[[record]]
compound = "CCOc1cc(C(=O)NCCCOc2cccc([C@](O)(C(=O)OCC3CCN(Cc4ccccc4)CC3)c3ccccc3)c2)ccc1CNC[C@H](O)c1ccc(O)c2[nH]c(=O)ccc12 [Compound 32D]"
observable = "IC50"
reportedresult = "< 0.3 nM"


Let us examine a further case.
[ask] Enter reported IC50 observed with Human β2 adrenoceptor (Homo sapiens, UniProt P07550) for CC(C)Oc1cc(C(=O)N[C@H]2C[C@H](NC(=O)COc3cccc([C@](O)(C(=O)OCC4CCN(Cc5ccccc5)CC4)c4ccccc4)c3)C2)ccc1CNC[C@H](O)c1ccc(O)c2[nH]c(=O)ccc12
Sequence (P07550 whole entry): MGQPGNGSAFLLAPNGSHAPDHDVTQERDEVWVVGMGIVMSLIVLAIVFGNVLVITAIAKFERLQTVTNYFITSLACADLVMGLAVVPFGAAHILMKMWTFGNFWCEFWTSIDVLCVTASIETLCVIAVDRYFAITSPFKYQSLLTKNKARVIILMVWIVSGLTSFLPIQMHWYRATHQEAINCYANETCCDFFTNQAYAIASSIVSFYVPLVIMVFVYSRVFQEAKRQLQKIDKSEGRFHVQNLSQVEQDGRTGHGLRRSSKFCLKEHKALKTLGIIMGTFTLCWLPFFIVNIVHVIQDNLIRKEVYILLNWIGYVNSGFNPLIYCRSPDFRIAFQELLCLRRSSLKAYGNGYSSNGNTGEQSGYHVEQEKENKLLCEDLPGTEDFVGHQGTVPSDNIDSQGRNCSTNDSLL
[reply] 0.3 to 3 nM

====

experimentalSystem: Human M3 receptor (Homo sapiens, UniProt P20309)
Sequence (P20309 whole entry): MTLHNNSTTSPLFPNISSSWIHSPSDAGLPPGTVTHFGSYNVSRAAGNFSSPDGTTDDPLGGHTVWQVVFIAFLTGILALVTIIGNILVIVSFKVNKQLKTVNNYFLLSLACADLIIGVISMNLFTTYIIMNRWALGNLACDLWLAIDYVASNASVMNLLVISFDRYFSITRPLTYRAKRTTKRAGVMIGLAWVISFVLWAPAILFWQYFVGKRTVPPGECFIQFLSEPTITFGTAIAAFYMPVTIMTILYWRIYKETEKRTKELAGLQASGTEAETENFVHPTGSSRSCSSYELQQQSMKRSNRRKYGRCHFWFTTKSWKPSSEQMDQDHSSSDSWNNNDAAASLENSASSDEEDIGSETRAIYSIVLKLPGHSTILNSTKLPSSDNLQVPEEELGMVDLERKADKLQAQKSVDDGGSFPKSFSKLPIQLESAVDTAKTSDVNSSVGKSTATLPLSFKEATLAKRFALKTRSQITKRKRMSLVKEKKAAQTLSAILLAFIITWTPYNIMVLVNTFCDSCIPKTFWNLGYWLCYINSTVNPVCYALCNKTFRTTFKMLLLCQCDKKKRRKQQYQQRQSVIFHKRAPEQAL
Measured IC50, listed per entry.

Some entries whose results are on file:
[[record]]
compound = "O=C(NCC1CCN(C(=O)COc2cccc([C@](O)(C(=O)OCC3CCN(Cc4ccccc4)CC3)c3ccccc3)c2)CC1)c1ccc(CNC[C@H](O)c2ccc(O)c3[nH]c(=O)ccc23)cc1 [Compound 61]"
reportedresult = "300 to 3000 pM"

[[record]]
compound = "O=C(NC1CN(C(=O)COc2cccc([C@](O)(C(=O)OCC3CCN(Cc4ccccc4)CC3)c3ccccc3)c2)C1)c1ccc(CCNC[C@H](O)c2ccc(O)c3[nH]c(=O)ccc23)cc1 [Compound 102]"
reportedresult = "< 300 pM"

[[record]]
compound = "O=C(OCC1CCN(Cc2ccccc2)CC1)C(O)(c1ccccc1)c1cccc(OCCCCCNC[C@H](O)c2ccc(O)c3[nH]c(=O)ccc23)c1 (some centres unmarked) [Compound 1]"
reportedresult = "300 to 3000 pM"

[[record]]
compound = "O=C(COc1cccc([C@](O)(C(=O)OCC2CCN(Cc3ccccc3)CC2)c2ccccc2)c1)NCCNC(=O)c1ccc(CCNC[C@H](O)c2ccc(O)c3[nH]c(=O)ccc23)cc1 [Compound 103]"
reportedresult = "< 300 pM"

[[record]]
compound = "O=C(NCCc1cccc(C(O)(C(=O)OCC2CCN(Cc3ccccc3)CC2)c2ccccc2)c1)c1ccc(CCNC[C@H](O)c2ccc(O)c3[nH]c(=O)ccc23)cc1 (some centres unmarked) [Compound 40]"
reportedresult = "300 to 3000 pM"


[ask] Enter reported IC50 observed with Human M3 receptor (Homo sapiens, UniProt P20309) for O=C(COc1cccc([C@](O)(C(=O)OCC2CCN(Cc3ccccc3)CC2)c2ccccc2)c1)N1CCOC2(CCN(C(=O)c3ccc(CCNC[C@H](O)c4ccc(O)c5[nH]c(=O)ccc45)cc3)CC2)C1 [Compound 100]
[reply] < 300 pM

[ask] Enter reported IC50 observed with Human M3 receptor (Homo sapiens, UniProt P20309) for O=C(COc1cccc([C@](O)(C(=O)OCC2CCN(Cc3ccccc3)CC2)c2ccccc2)c1)N1CCN(C(=O)c2ccc(CNC[C@H](O)c3ccc(O)c4[nH]c(=O)ccc34)cc2)CC1 [Compound 58]
[reply] 300 to 3000 pM

[ask] Enter reported IC50 observed with Human M3 receptor (Homo sapiens, UniProt P20309) for COc1cc(C(=O)NCCCOc2cccc([C@](O)(C(=O)OCC3CCN(Cc4ccccc4)CC3)c3ccccc3)c2)c(Cl)cc1CNC[C@H](O)c1ccc(O)c2[nH]c(=O)ccc12 [Compound 32J]
[reply] 300 to 3000 pM

[ask] Enter reported IC50 observed with Human M3 receptor (Homo sapiens, UniProt P20309) for O=C(N[C@@H]1CCCN(C(=O)COc2cccc([C@](O)(C(=O)OCC3CCN(Cc4ccccc4)CC3)c3ccccc3)c2)C1)c1ccc(CNC[C@H](O)c2ccc(O)c3[nH]c(=O)ccc23)cc1 [Compound 75]
[reply] 300 to 3000 pM

[ask] Enter reported IC50 observed with Human M3 receptor (Homo sapiens, UniProt P20309) for O=C(NCCCNC[C@H](O)c1ccc(O)c2[nH]c(=O)ccc12)c1ccc(COc2cccc([C@@](O)(C(=O)OCC3CCN(Cc4ccccc4)CC3)c3ccccc3)c2)cc1 [Compound 44]
[reply] 300 to 3000 pM

[ask] Enter reported IC50 observed with Human M3 receptor (Homo sapiens, UniProt P20309) for O=C(COc1cccc([C@](O)(C(=O)OCC2CCN(Cc3ccccc3)CC2)c2ccccc2)c1)N[C@@H]1CCN(C(=O)c2ccc(CCNC[C@H](O)c3ccc(O)c4[nH]c(=O)ccc34)cc2)C1 [Compound 104]
[reply] < 300 pM

[ask] Enter reported IC50 observed with Human M3 receptor (Homo sapiens, UniProt P20309) for O=C(NCC(=O)N1CCC(COc2cccc([C@](O)(C(=O)OCC3CCN(Cc4ccccc4)CC3)c3ccccc3)c2)CC1)c1ccc(CCNC[C@H](O)c2ccc(O)c3[nH]c(=O)ccc23)cc1 [Compound 152]
[reply] < 300 pM

[ask] Enter reported IC50 observed with Human M3 receptor (Homo sapiens, UniProt P20309) for O=C(OCC1CCN(Cc2ccccc2)CC1)C(O)(c1cccc(OCCCCCNC[C@H](O)c2ccc(O)c3[nH]c(=O)ccc23)c1)C1CCCCC1 (some centres unmarked) [Compound 10]
[reply] 300 to 3000 pM

[ask] Enter reported IC50 observed with Human M3 receptor (Homo sapiens, UniProt P20309) for O=C(COc1cccc([C@](O)(C(=O)OCC2CCN(Cc3ccccc3)CC2)c2ccccc2)c1)NCC(=O)N1CCC(CNC[C@H](O)c2ccc(O)c3[nH]c(=O)ccc23)CC1 [Compound 150]
[reply] < 300 pM

[ask] Enter reported IC50 observed with Human M3 receptor (Homo sapiens, UniProt P20309) for O=C(N[C@H]1C[C@H](NC(=O)c2ccc(COc3cccc([C@](O)(C(=O)OCC4CCN(Cc5ccccc5)CC4)c4ccccc4)c3)cc2)C1)c1ccc(CNC[C@H](O)c2ccc(O)c3[nH]c(=O)ccc23)cc1 [Compound 123]
[reply] 300 to 3000 pM

[ask] Enter reported IC50 observed with Human M3 receptor (Homo sapiens, UniProt P20309) for COc1cc(C(=O)NCCCOc2cccc([C@](O)(C(=O)OCC3CCN(Cc4ccccc4)CC3)c3ccccc3)c2)ccc1CNC[C@H](O)c1ccc(O)c2[nH]c(=O)ccc12 [Compound 32A]
[reply] 300 to 3000 pM

[ask] Enter reported IC50 observed with Human M3 receptor (Homo sapiens, UniProt P20309) for O=C(COc1cccc([C@](O)(C(=O)OCC2CCN(Cc3ccccc3)CC2)c2ccccc2)c1)NCC1CCN(C(=O)c2ccc(CCNC[C@H](O)c3ccc(O)c4[nH]c(=O)ccc34)cc2)CC1 [Compound 97]
[reply] 300 to 3000 pM

[ask] Enter reported IC50 observed with Human M3 receptor (Homo sapiens, UniProt P20309) for O=C(c1ccc(COc2cccc([C@](O)(C(=O)OCC3CCN(Cc4ccccc4)CC3)c3ccccc3)c2)cc1)N1CCC(CNC[C@H](O)c2ccc(O)c3[nH]c(=O)ccc23)CC1 [Compound 33]
[reply] < 300 pM

[ask] Enter reported IC50 observed with Human M3 receptor (Homo sapiens, UniProt P20309) for O=C(c1ccc(CCNC[C@H](O)c2ccc(O)c3[nH]c(=O)ccc23)cc1)N1CCCC2(C1)CN(C(=O)c1ccc(COc3cccc([C@](O)(C(=O)OCC4CCN(Cc5ccccc5)CC4)c4ccccc4)c3)cc1)C2 [Compound 120]
[reply] < 300 pM

[ask] Enter reported IC50 observed with Human M3 receptor (Homo sapiens, UniProt P20309) for O=C(c1ccc(CCNC[C@H](O)c2ccc(O)c3[nH]c(=O)ccc23)cc1)N1CCN(C(=O)c2ccc(COc3cccc([C@](O)(C(=O)OCC4CCN(Cc5ccccc5)CC4)c4ccccc4)c3)cc2)CC1 [Compound 118]
[reply] < 300 pM
